target: T1, human C-KIT-Fc (human, UniProt P10721 26-524); test: direct titration ELISA on coated C-KIT-Fc, IgG1 format
T1 construct: also called biotinylated human C-KIT-Fc; not shown: Fc part not described
Readout name: binding result

Exercise: Quick one: binding result of MH5.6 (antibody, IgG1, V domains shown, IgG1) VH: QVQLVQSGAEVKKPGASVKVSCKASGYTFTDHYMNWVRQAPGQGLEWMGRIYPGTGNTYYAQKFQGRVTMTRDTSTSTVYMELSSLRSEDTAVYYCARGVWYFDEWGQGTLVTVSS VL: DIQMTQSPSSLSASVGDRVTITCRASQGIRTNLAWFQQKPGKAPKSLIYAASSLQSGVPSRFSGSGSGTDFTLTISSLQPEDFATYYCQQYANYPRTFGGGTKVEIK ?
Solution: binds

Exercise: Given the entry MH5.10 (antibody, IgG1, V domains shown, IgG1) VH: QVQLVQSGAEVKKPGASVKVSCKASGYTFTDHYMNWVRQAPGQGLEWMGRIYPGAGNTYYAQKFQGRVTMTRDTSTSTVYMELSSLRSEDTAVYYCARGVWYFDEWGQGTLVTVSS VL: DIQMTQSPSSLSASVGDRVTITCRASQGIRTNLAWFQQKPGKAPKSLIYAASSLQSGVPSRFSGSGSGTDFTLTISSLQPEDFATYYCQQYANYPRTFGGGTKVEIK , report its measured binding result.
Solution: binds

Exercise: What does the data say about its binding result? Entry: MH5.15 (antibody, IgG1, V domains shown, IgG1) VH: QVQLVQSGAEVKKPGASVKVSCKASGYTFTDFYMNWVRQAPGQGLEWMGRIYPGTGNTYYAQKFQGRVTMTRDTSTSTVYMELSSLRSEDTAVYYCARGVWYFDSWGQGTLVTVSS VL: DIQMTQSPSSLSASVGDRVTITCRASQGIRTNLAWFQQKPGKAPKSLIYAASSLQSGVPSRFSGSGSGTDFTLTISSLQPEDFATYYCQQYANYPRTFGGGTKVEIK
Solution: binds
